Provide the reported z-score of subpopulation abundance of each item.
# Test system: Saccharomyces cerevisiae BY4741 SeMeCo community
# protocol-notes: z-score of subpopulation abundance vs DMSO median, subpopulation auxotrophic for HLU; higher = larger share of this subpopulation than in DMSO controls
# run-conditions: 10 µM; 24 h; SM minimal medium; subpopulation (auxotrophy): HLU
Where a name gives a salt, the structure may show the parent alone.
One number for each entry.

Dear reader, for each entry below, please note its z-score of subpopulation abundance.
1. Nc1ccc(C(=O)O)c(O)c1
2. O=C(N[C@H](CO)[C@H](O)c1ccc([N+](=O)[O-])cc1)C(Cl)Cl
3. CCC(C)(C)C(=O)O[C@H]1C[C@@H](C)C=C2C=C[C@H](C)[C@H](CC[C@@H]3C[C@@H](O)CC(=O)O3)[C@H]21

[out]
1. -0.27
2. -0.24
3. 3.09

Dear reader, for each entry below, please note its z-score of subpopulation abundance.
1. CCCc1nc(C)c2c(=O)nc(-c3cc(S(=O)(=O)N4CCN(CC)CC4)ccc3OCC)[nH]n12 [Vardenafil HCl Trihydrate]
2. CCCCCCCCCC(=O)NC1C(Oc2c3cc4cc2Oc2ccc(cc2Cl)C(OC2OC(CO)C(O)C(O)C2NC(C)=O)C2NC(=O)C(NC(=O)C4NC(=O)C4NC(=O)C(Cc5ccc(c(Cl)c5)O3)NC(=O)C(N)c3ccc(O)c(c3)Oc3cc(O)cc4c3)c3ccc(O)c(c3)-c3c(OC4OC(CO)C(O)C(O)C4O)cc(O)cc3C(C(=O)O)NC2=O)OC(CO)C(O)C1O (stereo not given)
3. O=C1CC2(CCCC2)CC(=O)N1CCCCN1CCN(c2ncccn2)CC1 [Buspirone HCl]
4. Nc1ccc2cc3ccc(N)cc3nc2c1

[out]
0.57
-0.15
-0.25
-4.19
